# target of assay: cIAP1-BIR3 (Homo sapiens (Human), UniProt Q13490)
# Sequence (Q13490 253-363): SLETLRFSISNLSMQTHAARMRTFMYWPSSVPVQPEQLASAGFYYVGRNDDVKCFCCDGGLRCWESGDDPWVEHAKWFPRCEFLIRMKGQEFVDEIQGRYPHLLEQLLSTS
# method summary: BIR binding assay (FRET competition), cIAP1 BIR3
# condition set: fold separation (FS) for cIAP1
# Method: The BIR domain binding assays are FRET based competition assays that utilize His-tagged versions of each of the BIR2 and BIR3 domains from cIAP1, cIAP2, and XIAP (each domain assayed separately) each at a custom optimal concentration and a probe, 200 nM SMAC/DIABLO peptide […] labelled with AlexaFluor647 (part #crb 1110326h, Discovery Peptides). The assay is conducted in 50 mM HEPES, […], 1 mM CHAPS, 5% Glycerol, 1 mM DTT, in dI water with a final pH of 7.4 and final volume of 20 uL. […]
metric: cIAP1 BIR3 vs BIR2 separation window

The examples below pair each entry with its known result.
| compound | cIAP1 BIR3 vs BIR2 separation window |
| --- | --- |
| C[C@@H]1CN(CC(=O)N2CC(C)(C)c3[nH]c(=O)c(Cc4ccc(F)cc4)cc32)[C@@H](CN2CCO[C@H](COc3cc(F)cc(OC[C@@H]4CN(C[C@H]5CN[C@H](C)CN5CC(=O)N5CC(C)(C)c6[nH]c(=O)c(Cc7ccc(F)cc7)cc65)CCO4)c3)C2)CN1 [Example 73] | +++ (10,000>FS>1,000) |
| C[C@@H]1CN(CC(=O)N2CC(C)(C)c3[nH]c(=O)c(Cc4ccc(F)cc4)cc32)[C@@H](CN2CCN(C(=O)COCCOCC(=O)N3CCN(C[C@H]4CN[C@H](C)CN4CC(=O)N4CC(C)(C)c5[nH]c(=O)c(Cc6ccc(F)cc6)cc54)[C@H](C)C3)C[C@H]2C)CN1 [Example 5] | ++ (1,000>FS>100) |
| Cc1ccc(Cc2cc3c([nH]c2=O)C(C)(C)CN3C(=O)CN2C[C@@H](C)NC[C@@H]2CN2CCO[C@H](C(=O)NCc3ccc(CNC(=O)[C@@H]4CN(C[C@H]5CN[C@H](C)CN5CC(=O)N5CC(C)(C)c6[nH]c(=O)c(Cc7ccc(C)cc7)cc65)CCO4)cc3)C2)cc1 [Compound 163] | ++ (1,000>FS>100) |
| C[C@@H]1CN(CC(=O)N2CC(C)(C)c3[nH]c(=O)c(Cc4ccc(F)cc4)cc32)[C@@H](CN2CCC[C@@H](NC(=O)Cc3ccc(CC(=O)N[C@@H]4CCCN(C[C@H]5CN[C@H](C)CN5CC(=O)N5CC(C)(C)c6[nH]c(=O)c(Cc7ccc(F)cc7)cc65)C4)cc3)C2)CN1 [Example 48] | +++ (10,000>FS>1,000) |
| C[C@@H]1CN(CC(=O)N2CC(C)(C)c3[nH]c(=O)c(Cc4ccc(F)cc4)cc32)[C@@H](CN2CCO[C@H](COc3ccc(F)c(OC[C@@H]4CN(C[C@H]5CN[C@H](C)CN5CC(=O)N5CC(C)(C)c6[nH]c(=O)c(Cc7ccc(F)cc7)cc65)CCO4)c3)C2)CN1 [Example 75] | +++ (10,000>FS>1,000) |

stdin: Field request: cIAP1 BIR3 vs BIR2 separation window | item: C[C@@H]1CN(CC(=O)N2CC(C)(C)c3[nH]c(=O)c(Cc4ccc(Cl)cc4C#N)cc32)[C@@H](CN2CCO[C@H](C(=O)NCc3ccc(CNC(=O)[C@@H]4CN(C[C@H]5CN[C@H](C)CN5CC(=O)N5CC(C)(C)c6[nH]c(=O)c(Cc7ccc(Cl)cc7C#N)cc65)CCO4)cc3)C2)CN1 [Compound 171]
stdout: ++ (1,000>FS>100)

stdin: Field request: cIAP1 BIR3 vs BIR2 separation window | item: C[C@@H]1CN(CC(=O)N2CC(C)(C)c3[nH]c(=O)c(Cc4ccc(F)cc4)cc32)[C@@H](CN2CCC(CN(C)C(=O)c3ccc(C(=O)N(C)CC4CCN(C[C@H]5CN[C@H](C)CN5CC(=O)N5CC(C)(C)c6[nH]c(=O)c(Cc7ccc(F)cc7)cc65)CC4)cc3)CC2)CN1 [Example 96]
stdout: +++ (10,000>FS>1,000)
